The following compounds are shown together with reported GI50 values.
Tested on: osteosarcoma cell line HOS
test_description: Calcein AM cytotoxicity assay
Type: cell-based, human
test_conditions: 72 hours

Oc1cccc(CNc2ncnc3nc[nH]c23)c1 [meta-topolin, reference compound] ... > 167 µM
COc1cccc(Nc2nc(SC)nc3[nH]cnc23)c1 ... > 167 µM
COc1ccccc1Nc1nc(S)nc2nc[nH]c12 ... > 167 µM

Fill in: GI50 of "Cc1nc(Nc2cccc(O)c2)c2nc[nH]c2n1" is ___
> 167 µM

Fill in: GI50 of "Sc1nc(Nc2ccccc2)c2nc[nH]c2n1" is ___
> 167 µM

Fill in: GI50 of "CSc1nc(Nc2cccc(O)c2)c2nc[nH]c2n1" is ___
> 167 µM

Fill in: GI50 of Oc1ccccc1CNc1ncnc2nc[nH]c12 [ortho-topolin, reference compound] is ___
> 167 µM
